System: V. vulgaris
Protocol details: Field trapping Experiment 1, Rescue W•H•Y traps
Type: in vivo, Vespula vulgaris
Experimental parameters: Exp 1; HIPV added to WHY attractant in the top chamber, or WHY alone
Description: Three field trapping experiments were carried out during late July to early August 2009, in residential and woody areas around Spokane, Wash., USA, using the newly marketed Rescue® W•H•Y traps (www.rescue.com). As used herein, the W•H•Y trap is a trap in accordance with the description of United States Patent Application Publication No. 2009/0151228. The W•H•Y trap has a top chamber and a bottom chamber. […]
Criterion: Total Yellowjacket Catches V. vulgaris strictly under 40. Met: true (1). Not met: false (0).

{"columns": ["Compound", "Class name"],
 "data": [
  ["CC/C=C\\CCO [Z-3-Hexanol, (Z)-3-hexen-1-ol]", "true (1)"],
  ["C=C/C(C)=C/CC=C(C)C [Ocimene, cis-ocimene]", "false (0)"],
  ["CCC/C=C/C=O [E-2-Hexenal, (E)-2-hexenal]", "false (0)"],
  ["C=C1CC/C=C(\\C)CC[C@@H]2[C@@H]1CC2(C)C (relative stereo) [β-Caryophyllene, trans-β-caryophyllene]", "false (0)"],
  ["CC/C=C\\CCOC(C)=O [Z-3-Hexenyl Acetate, (Z)-3-hexenyl acetate]", "true (1)"],
  ["COC(=O)c1ccccc1O [Methyl Salicylate, methyl salicylate]", "true (1)"],
  ["C=CC(=C)CC/C=C(\\C)CCC=C(C)C [E-β-Farnesene, trans-β-farnesene]", "true (1)"],
  ["CC(=O)OC/C=C(\\C)CCC=C(C)C [Geranyl Acetate, geranyl acetate]", "true (1)"],
  ["C=CC(C)(O)CCC=C(C)C (stereo not shown)", "true (1)"],
  ["C=C/C=C(\\C)CCC=C(C)C [(E)-4,8-dimethyl-1,3,7-nonatriene]", "false (0)"]
]}

====

Test system: Chrysopa oculata antennae
Protocol details: GC-EAD of synthetic HIPVs on beneficial insect antennae
Experimental parameters: FIG. 6

{"columns": ["Molecule", "EAD-response"],
 "data": [
  ["C=C/C=C(\\C)CCC=C(C)C [(E)-4,8-dimethyl-1,3,7-nonatriene]", "strong EAD-responses"],
  ["C=C/C(C)=C/CC=C(C)C [β-ocimene, trans-β-ocimene]", "strong EAD-responses"],
  ["CC/C=C\\CCOC(C)=O [Z-3-Hexenyl Acetate, (Z)-3-hexenyl acetate]", "strong EAD-responses"],
  ["COC(=O)c1ccccc1O [Methyl Salicylate, methyl salicylate]", "strong EAD-responses"]
]}

====

Test system: D. arenaria
Protocol details: Field trapping Experiment 1, Rescue W•H•Y traps
Assay type: in vivo, Dolichovespula arenaria
Experimental parameters: Exp 1; HIPV added to WHY attractant in the top chamber, or WHY alone

{"columns": ["Compound", "System tested", "Total Yellowjacket Catches D. arenaria"],
 "data": [
  ["C=C1CC/C=C(\\C)CC[C@@H]2[C@@H]1CC2(C)C (relative stereo) [β-Caryophyllene, trans-β-caryophyllene]", "D. arenaria", 5],
  ["CC/C=C\\CCO [Z-3-Hexanol, (Z)-3-hexen-1-ol]", "D. arenaria", 1],
  ["CCC/C=C/C=O [E-2-Hexenal, (E)-2-hexenal]", "D. arenaria", 4],
  ["CC(=O)OC/C=C(\\C)CCC=C(C)C [Geranyl Acetate, geranyl acetate]", "D. arenaria", 2],
  ["C=C/C=C(\\C)CCC=C(C)C [(E)-4,8-dimethyl-1,3,7-nonatriene]", "D. arenaria", 7]
]}

====

Test system: D. arenaria
Protocol details: Field trapping Experiment 1, Rescue W•H•Y traps
Type: in vivo, Dolichovespula arenaria
Experimental parameters: Exp 1; HIPV added to WHY attractant in the top chamber, or WHY alone
If the reported Total Yellowjacket Catches D. arenaria equals or exceeds 8, assign Fulfilled. If not, assign Not fulfilled.

{"columns": ["Molecule", "Class name"],
 "data": [
  ["C=CC(=C)CC/C=C(\\C)CCC=C(C)C [E-β-Farnesene, trans-β-farnesene]", "Fulfilled"],
  ["C=CC(C)(O)CCC=C(C)C (centres unmarked)", "Not fulfilled"],
  ["C=C/C(C)=C/CC=C(C)C [Ocimene, cis-ocimene]", "Fulfilled"],
  ["COC(=O)c1ccccc1O [Methyl Salicylate, methyl salicylate]", "Not fulfilled"]
]}

Just for reference, patent US20110165115A1 is where these values come from.
